- assayExplanation: in vitro
- runParameters: rat, gh3-tre-luc cells, AC50 (uM) modified / 1000, Tox21_110001=Tox21_112835; viability, 1 nM T3 present, 24 h
Where a name gives a salt, the structure may show the parent alone.
readoutType: CC50 at 24 h (µM)

compound	readoutType	unitName	readoutNumber
C[C@H]1[C@H]2Cc3ccc(O)cc3[C@]1(C)CCN2CCc1ccccc1 [(-)-Phenazocine hydrobromide]	CC50 at 24 h	µM	48.2

---

- assayExplanation: in vitro
- runParameters: rat, gh3-tre-luc cells, AC50 (uM) modified / 1000

compound	CC50 at 24 h
O=S(=O)(O)c1ccc(Cl)cc1 [4-Chlorobenzenesulfonic acid]	> 90 µM
CCCCCOC(=O)c1ccccc1C(=O)OCCCCC [Dipentyl phthalate]	> 90 µM
C[C@@H](c1ncncc1F)[C@](O)(Cn1cncn1)c1ccc(F)cc1F [Voriconazole]	> 50 µM
ON=C1CCCCC1 [Cyclohexanone oxime]	> 90 µM
O=C1OC(=O)c2cc(Oc3ccc4c(c3)C(=O)OC4=O)ccc21 [5,5'-Oxybis(2-benzofuran-1,3-dione)]	> 90 µM
CNC(=O)c1ccccc1Sc1ccc2c(/C=C/c3ccccn3)n[nH]c2c1 [Axitinib]	> 50 µM
O=C(O)/C=C/c1ccc(O)c(O)c1 [Caffeic acid]	> 90 µM
C1CCCCC1 [Cyclohexane]	> 90 µM
O=C1OC(c2cc(I)c(O)c(I)c2)(c2cc(I)c(O)c(I)c2)c2ccccc21 [Iodophthalein]	36.2 µM
CCCCCCCCn1sccc1=O [Octhilinone]	5.52 µM
Nc1nc(N)c2nc(CNc3ccc(C(=O)N[C@@H](CCC(=O)O)C(=O)O)cc3)cnc2n1 [4-Aminofolic acid]	> 50 µM
CCCCCCCCCCCCCCC[C@H](O)[C@@H](N)CO [Safingol]	> 50 µM
Cc1ccc(S(N)(=O)=O)cc1 [4-Toluenesulfonamide]	> 90 µM
CO/N=C(\C(=O)N[C@@H]1C(=O)N2C(C(=O)O)=C(CSC(=O)c3ccco3)CS[C@H]12)c1csc(N)n1 [Ceftiofur]	> 50 µM
NC(N)=S [Thiourea]	> 90 µM
Nc1nnc(S)[nH]1	> 90 µM
CCCCN(CC)C(=O)SCCC [Pebulate]	> 90 µM
OCC1CCC(CO)CC1 (stereo not drawn) [1,4-Cyclohexanedimethanol]	> 90 µM
CCC(=O)OCC(=O)[C@@]1(OC(=O)CC)[C@@H](C)C[C@H]2[C@@H]3CCC4=CC(=O)C=C[C@]4(C)[C@@]3(Cl)[C@@H](O)C[C@@]21C [Beclazone]	> 50 µM
CC1(C)OC(=O)NC1=O [Dimethadione]	> 90 µM
N#Cc1cc(Br)c(O)c(Br)c1 [Bromoxynil]	> 90 µM

---

- assayExplanation: in vitro
- runParameters: rat, gh3-tre-luc cells, AC50 (uM) modified / 1000, Tox21_110001=Tox21_111872; viability, 1 nM T3 present, 24 h

molecule	CC50 at 24 h
CCN(C(C)=O)c1cccc(-c2ccnc3c(C#N)cnn23)c1	> 50 µM

---

- System: GH3-TRE-Luc cell line
- runParameters: read-out: AC50 (uM) modified / 1000; Tox21_110001=Tox21_301286; viability, 1 nM T3 present, 24 h

molecule	CC50, µM
c1cnc2c(c1)ccc1cccnc12	7.25

---

- assayExplanation: in vitro
- runParameters: rat, gh3-tre-luc cells, AC50 (uM) modified / 1000, Tox21_110001=Tox21_301256; viability, 1 nM T3 present, 24 h

compound	CC50 at 24 h
CC(=O)c1cc2c(cc1C)C(C)(C)C(C)CC2(C)C (stereo not shown) [6-Acetyl-1,1,2,4,4,7-hexamethyltetralin]	45.6 µM
